study.system: human CTLA-4 (human) (UniProt P16410)
Sequence (P16410 36-223): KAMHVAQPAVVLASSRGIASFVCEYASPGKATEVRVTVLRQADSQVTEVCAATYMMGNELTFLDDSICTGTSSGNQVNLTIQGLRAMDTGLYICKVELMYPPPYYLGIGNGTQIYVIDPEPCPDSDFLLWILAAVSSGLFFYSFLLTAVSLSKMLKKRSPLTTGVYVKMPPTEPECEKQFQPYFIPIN
method.summary: flow cytometry, CHO/CTLA4 cells; MFI over CD80 WT IgV-Fc
observable: Fold change to WT CD80 (fold)

{"columns": ["binder", "unit.text", "Fold change to WT CD80"],
 "data": [
  ["variant CD80 IgV-Fc (inert) H18V/A26D/E35D/M47V/V68M/A71G/D90G (Fc fusion) VIHVTKEVKEVATLSCGVNVSVEELDQTRIYWQKDKKMVLTMMSGDVNIWPEYKNRTIFDITNNLSIMILGLRPSDEGTYECVVLKYEKGAFKREHLAEVTLSVKAD", "fold", 16]
]}

1. variant CD80 IgV-Fc (inert) H18L/A26N/D46E/V68M/A71G/D90G (Fc fusion) VIHVTKEVKEVATLSCGLNVSVEELNQTRIYWQKEKKMVLTMMSGEMNIWPEYKNRTIFDITNNLSIMILGLRPSDEGTYECVVLKYEKGAFKREHLAEVTLSVKAD
2. CD80 E35D/M47V/N48K/V68M/K89N IgV-Fc, EAAAK linker (Fc fusion) VIHVTKEVKEVATLSCGHNVSVEELAQTRIYWQKDKKMVLTMMSGDVKIWPEYKNRTIFDITNNLSIMILALRPSDEGTYECVVLKYENDAFKREHLAEVTLSVKADEAAAK
3. variant CD80 IgV-Fc (inert) H18Y/A26P/E35D/M47Y/V68I/A71G/D90G (Fc fusion) VIHVTKEVKEVATLSCGYNVSVEELPQTRIYWQKDKKMVLTMMSGDYNIWPEYKNRTIFDITNNLSIIILGLRPSDEGTYECVVLKYEKGAFKREHLAEVTLSVKAD
Arrange by Fold change to WT CD80, high to low. A complete answer lists every label in the requested sequence. 2, 1, 3
(2: 23 fold, 1: 12.3 fold, 3: 6 fold)
